settings: two classes made from the FDA DILI-concern labeling
EXPERIMENTAL_ENDPOINT: Severity class

MOLECULE	TEST_VALUE
O=C(O)Cc1ccccc1Nc1c(Cl)cccc1Cl	Sev.
Oc1ncnc2[nH]ncc12	Sev.
C[C@H]1O[C@H](O[C@H]2[C@H](O)[C@@H](O)[C@@H](O[C@H]3[C@H](O)[C@@H](O)C(O)O[C@@H]3CO)O[C@@H]2CO)[C@H](O)[C@@H](O)[C@@H]1N[C@H]1C=C(CO)[C@@H](O)[C@H](O)[C@H]1O (stereo partly shown)	Sev.

====

conditions: two classes made from the FDA DILI-concern labeling

MOLECULE	Severity class
CCN(CC)C(=O)/C(C#N)=C/c1cc(O)c(O)c([N+](=O)[O-])c1	Non-sev.
COc1cc2c(c(OC)c1OC)-c1ccc(OC)c(=O)cc1[C@@H](NC(C)=O)CC2	Non-sev.
NC[C@H]1O[C@H](O[C@H]2[C@H](O)[C@@H](O[C@H]3O[C@H](CO)[C@@H](O)[C@H](N)[C@H]3O)[C@H](N)C[C@@H]2N)[C@H](O)[C@@H](O)[C@@H]1O	Non-sev.
CN1C(=O)CCS(=O)(=O)C1c1ccc(Cl)cc1 (centres unmarked)	Sev.
Nc1ncnc2c1ncn2CCOCP(=O)(O)O	Non-sev.
Cc1c(C)c2c(c(C)c1O)CCC(C)(COc1ccc(CC3SC(=O)NC3=O)cc1)O2 (centres unmarked)	Sev.
COc1cc(NC(C)CCCN)c2ncccc2c1 (centres unmarked)	Non-sev.
Cc1ccc(C(=O)c2cc(O)c(O)c([N+](=O)[O-])c2)cc1	Sev.
